Values were extracted from paper PMC4457528.

Reported IC50 values for the following molecules.
# Tested on: MZ-CRC-1 cells
# test_description: Growth curves, MZ-CRC-1 medullary thyroid carcinoma cells (RET/M918T)
# Type: cell-based
# test_parameters: Homo sapiens, 10% serum, 95% CI in brackets, read-out: Growth inhibition IC50 dose MZ-CRC-1
reported_metric: IC50 (nM)

{"compound": "CCN1CCN(Cc2ccc(NC(=O)c3ccc(C)c(NC(=O)c4cncc(-c5cccs5)c4)c3)cc2C(F)(F)F)CC1", "numeric_result": 2}
{"compound": "CCN1CCN(Cc2ccc(NC(=O)c3ccc(C)c(C#Cc4cccnc4)c3)cc2C(F)(F)F)CC1", "numeric_result": 4.2}
{"compound": "CCN1CCN(Cc2ccc(NC(=O)c3ccc(C)c(/C=C/c4cnc5[nH]ccc5c4Cl)c3)cc2C(F)(F)F)CC1", "numeric_result": 1}
